# self-cleavage values compiled below
B1: Twister Ribozyme (parent)
chain: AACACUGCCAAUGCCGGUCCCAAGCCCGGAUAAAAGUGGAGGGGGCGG

- Variants of: B1
- Assay method text: self-cleavage, relative activity (ratio to wild type); higher = more cleavage; co-transcriptional
Measured quantity: self-cleavage

1) CACACUGCCAAUGCCGGUCCCAAGCUCGGAUAAAAGUGGAGGGGGCGG [A1C C26U] :: 0.133
2) AACGCUGCCGAUGCCGGUCCCAAGCCCGGAUAAAAGUGGAGGGGGCGG [A4G A10G] :: 0.892
3) AACACUGCCAAUGCCGGUCCCAAGCCCGGAUAAUAGUGGAGCGGGCGG [A34U G42C] :: 0.217
4) AACACUGCCAAUGCCCGUCCCAAGUCCGGAUAAAAGUGGAGGGGGCGG [G16C C25U] :: 0.188
5) AACACUGCCAAUGCCGGUCCCGAGCCCGGAUAAAAGUGAAGGGGGCGG [A22G G39A] :: 0.101
6) AACACUAACAAUGCCGGUCCCAAGCCCGGAUAAAAGUGGAGGGGGCGG [G7A C8A] :: 0.0866
7) AGCACUGCCAAUGCCGGUCCCAAGCCCGGAUAAAAGUGGAGGGGGAGG [A2G C46A] :: 0.2
8) AACACUGCCAAUGCCGGUCCCAAGCCCGGAUAAAAGUCGAGGCGGCGG [G38C G43C] :: 0.137
9) AACAAUGCCAAUGCCGGUCCCAAGCCCGGAUAAAAGUGGAGGUGGCGG [C5A G43U] :: 0.108
10) AACAGUGCCAAUGCCGUUCCCAAGCCCGGAUAAAAGUGGAGGGGGCGG [C5G G17U] :: 0.0612
11) AACAGUGCCAAUGCCGGUCCCAAGCCCGGAUAAAAGUGGAGGGGGGGG [C5G C46G] :: 0.915
12) AACACUGCCAAUCCCGGUCCCAAGCCCGGAUAAAAGGGGAGGGGGCGG [G13C U37G] :: 0.125
13) AACACUGCCAAUGCCGGUGCCAAGCCCGGAUAAAAGUGGAGGGGGCGU [C19G G48U] :: 0.218
14) AACACUGCCAAUCCCGGUCCAAAGCCCGGAUAAAAGUGGAGGGGGCGG [G13C C21A] :: 0.0599
15) AGCACUGCCAAUGCCGCUCCCAAGCCCGGAUAAAAGUGGAGGGGGCGG [A2G G17C] :: 0.0381
16) AACACUGCCAAUGCUGGUCCCCAGCCCGGAUAAAAGUGGAGGGGGCGG [C15U A22C] :: 0.932
17) AACUCUGCCAAUGACGGUCCCAAGCCCGGAUAAAAGUGGAGGGGGCGG [A4U C14A] :: 0.225
18) AACACUGCCAAUGCCGGUACCAAGCCCGGAUAAAAGUGGAGGGGGCGU [C19A G48U] :: 0.206
19) AACACUGCCAAUGCCGGUGCUAAGCCCGGAUAAAAGUGGAGGGGGCGG [C19G C21U] :: 0.101
20) AACACAGCCAAUGCCGGUCCCAAGCCCGGAUAAAACUGGAGGGGGCGG [U6A G36C] :: 0.136
21) AACACUGCCAAUGCCGGUCCCAAGCCAGGAUAAAAGUGGAAGGGGCGG [C27A G41A] :: 0.119
22) AACGCUGCCAAUGCCGGUCCCAAGCCCGGAUUAAAGUGGAGGGGGCGG [A4G A32U] :: 0.945
